- TARGET OR TEST SYSTEM: Nuclear receptor subfamily 1 group I member 2 (Homo sapiens)
- ASSAY INFO: ATG_PXR_TRANS: Attagene TRANS-FACTORIAL HepG2 Assay for human Pregnane X Receptor (PXR) (AID 2283008)
Results filed as inconclusive are left out. Activity calls are given as the source filed them. The calls were made as follows: active = hit-call score of the fitted dose curve at least 0.9, where 1 is the maximum; inconclusive = response in the unintended direction; inactive = score below 0.9.
Choose one outcome from this list and give only that: active, inactive

IN: Test call for this compound, please: COC(=O)c1cc(Oc2ccc(Cl)cc2Cl)ccc1[N+](=O)[O-]
OUT: active

IN: Test call for this compound, please: Nc1cccnc1
OUT: inactive

IN: Test call for this compound, please: O=C=Nc1ccc(Cl)cc1
OUT: inactive

IN: Test call for this compound, please: CC(=O)CN(CC(C)=O)N=O
OUT: inactive

IN: Test call for this compound, please: CCCCCCCCCCCCN(C)C
OUT: inactive

IN: Test call for this compound, please: O=[N+]([O-])c1cc([As](=O)(O)O)ccc1O
OUT: inactive

IN: Test call for this compound, please: COC(F)(C(F)(F)C(F)(F)F)C(F)(C(F)(F)F)C(F)(F)F (stereo not given)
OUT: inactive

IN: Test call for this compound, please: CCOC(=O)CCN(SN(C)C(=O)Oc1cccc2c1OC(C)(C)C2)C(C)C
OUT: active

IN: Test call for this compound, please: CCOC(=O)CC(=O)CCl
OUT: inactive

IN: Test call for this compound, please: CC(F)(F)CC(F)(F)F
OUT: inactive

IN: Test call for this compound, please: c1ccc(-c2cccc(-c3ccccc3)c2)cc1
OUT: active

IN: Test call for this compound, please: C=CC(Cl)CCl (stereo not given)
OUT: active

IN: Test call for this compound, please: CCCCN(CCCCO)N=O
OUT: inactive

IN: Test call for this compound, please: CCOC(=O)OC1=C(c2cc(C)ccc2C)C(=O)NC12CCC(OC)CC2 (stereo not given)
OUT: inactive

IN: Test call for this compound, please: C#CCOC(=O)/C=C(C)/C=C/CC(C)CCCC(C)C (stereo not given)
OUT: active

IN: Test call for this compound, please: COc1ccccc1N
OUT: inactive

IN: Test call for this compound, please: CCCCOP(=O)(CCCC)OCCCC
OUT: active

IN: Test call for this compound, please: O=NN1CCCCCC1
OUT: inactive

IN: Test call for this compound, please: ClCCCCl
OUT: inactive

IN: Test call for this compound, please: CC(C)C(C)(N)C#N (stereo not given)
OUT: inactive

IN: Test call for this compound, please: CCCCCCCCCCCCc1cccc(S(=O)(=O)O)c1
OUT: inactive

IN: Test call for this compound, please: N#Cc1cccnc1
OUT: inactive

IN: Test call for this compound, please: Cc1cccc(N=Nc2ccc(N(C)C)cc2)c1
OUT: inactive

IN: Test call for this compound, please: O=S(=O)(F)C(F)(F)C(F)(F)C(F)(F)C(F)(F)F
OUT: inactive

IN: Test call for this compound, please: CC(C)(C)c1ccc(CCOc2ncnc3ccccc23)cc1
OUT: inactive

IN: Test call for this compound, please: CC(c1ccc(O)cc1)c1ccc(O)cc1
OUT: active

IN: Test call for this compound, please: CC[N+](CC)(CC)CC
OUT: inactive

IN: Test call for this compound, please: CCOCn1c(-c2ccc(Cl)cc2)c(C#N)c(Br)c1C(F)(F)F
OUT: active

IN: Test call for this compound, please: CCOP(=S)(OCC)Oc1ccc(Cl)cc1Cl
OUT: active

IN: Test call for this compound, please: Cc1cc(C(C)(C)c2ccc(O)c(C)c2)ccc1O
OUT: active

IN: Test call for this compound, please: O=[N+]([O-])c1ccc(Nc2ccccc2)cc1
OUT: active

IN: Test call for this compound, please: COCCl
OUT: inactive

IN: Test call for this compound, please: O=C(Nc1ccc(Br)cc1)c1cc(Br)cc(Br)c1O
OUT: active

IN: Test call for this compound, please: O=C(CCl)Nc1ccccc1
OUT: inactive

IN: Test call for this compound, please: N#CCC#N
OUT: inactive

IN: Test call for this compound, please: [F][Sn]([c]1ccccc1)([c]1ccccc1)[c]1ccccc1
OUT: inactive

IN: Test call for this compound, please: CCOP(=S)(OCC)SCS(=O)(=O)C(C)(C)C
OUT: active

IN: Test call for this compound, please: Brc1c(Br)c(Br)c(Oc2c(Br)c(Br)c(Br)c(Br)c2Br)c(Br)c1Br
OUT: inactive

IN: Test call for this compound, please: CC(C)(c1ccc(O)c(-c2ccccc2)c1)c1ccc(O)c(-c2ccccc2)c1
OUT: active

IN: Test call for this compound, please: C[N+](C)(C)Cc1ccccc1
OUT: inactive
